Value source: patent US20190338038A1

Molecular target: T1, human interleukin 1 receptor accessory protein, membrane-bound form on cells (human, UniProt Q9NPH3 21-570)
T1 construct: On IL1-RAP-transfected 293 cells, AML cell lines (EOL-1, HNT-34, OCI-AML2, OCI-AML3), primary AML cells and HEK-Blue IL-1β cells; also called IL1-RAP; receptor IL1-RAP
T1 sequence: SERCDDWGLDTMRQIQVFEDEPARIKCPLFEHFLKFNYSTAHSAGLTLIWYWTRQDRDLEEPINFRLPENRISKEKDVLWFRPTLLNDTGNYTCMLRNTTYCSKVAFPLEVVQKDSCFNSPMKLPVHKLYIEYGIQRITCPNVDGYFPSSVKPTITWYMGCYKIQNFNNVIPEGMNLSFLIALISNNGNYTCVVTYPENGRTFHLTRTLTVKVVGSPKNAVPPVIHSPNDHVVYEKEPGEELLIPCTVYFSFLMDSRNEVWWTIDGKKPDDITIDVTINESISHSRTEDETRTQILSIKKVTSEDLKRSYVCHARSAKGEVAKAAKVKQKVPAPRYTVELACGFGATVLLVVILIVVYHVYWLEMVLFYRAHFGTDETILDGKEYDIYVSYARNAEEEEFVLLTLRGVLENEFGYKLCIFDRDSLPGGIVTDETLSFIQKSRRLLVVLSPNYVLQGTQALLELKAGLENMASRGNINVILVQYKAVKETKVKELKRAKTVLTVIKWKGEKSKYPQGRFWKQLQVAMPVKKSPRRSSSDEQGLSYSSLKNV
Assay: FACS on EOL-1 cells, FITC; antibody concentration not given
Each item that follows carries a reported MFI.
Lab note: jot the number down without any unit.

Task: Dear colleague, please send me the reported MFI for h54.9D7 HC2 / Chi54.9D7 LC#1 (antibody, V domains shown, also called humanized 54.9D7 HC2 with the chimeric light chain) VH: QVQLVQSGAEVKKPGASVKVSCKASGYIFITYWMNWVRQAPGQGLEWVGQIFPASGTTYYAQKFQGRVTMTVDTSTSTVYMELSSLRSEDTAVYYCARTDFYRYDGGYALDYWGQGTLVTVSS VL: DIVLTQSPISLAVFLGQRATISCRASQSVSTSGYSSMHWYQQKAGQPPKLLIKYASDLESGVPVRFSGSGSGTDFILNIHPVEVEDIATYYCHHSWGIPMYTFGGGTKLEIKR when you can.
Result: 75.1

Task: Write down MFI measured for item Chi54.9D7 HC#1 / h54.9D7 LC3 (antibody, V domains shown, also called chimeric 54.9D7 heavy chain with humanized LC3) VH: HVQLQQSGPELVRPGASVKLSCKASGYIFITYWMNWVKQRPGQGLEWVGQIFPASGTTYYNELFEGKATLTVDTSSNTAYMHLTSLTSEDSAVYYCARTDFYRYDGGYALDYWGQGTSLTVSS VL: DIQLTQSPSSLSASVGDRATITCRASQSVSTSGYSSMHWYQQKPGKAPKLLIKYASDLESGVPSRFSGSGSGTDFTLTISSVQPEDFATYYCHHSWGIPMYTFGQGTKLEIKR
Result: 121

Task: Specify reported MFI for the binder shown: chimeric 54.9D7 (antibody, V domains shown, Chimeric antibody; also called Chi54.9D7) VH: HVQLQQSGPELVRPGASVKLSCKASGYIFITYWMNWVKQRPGQGLEWVGQIFPASGTTYYNELFEGKATLTVDTSSNTAYMHLTSLTSEDSAVYYCARTDFYRYDGGYALDYWGQGTSLTVSS VL: DIVLTQSPISLAVFLGQRATISCRASQSVSTSGYSSMHWYQQKAGQPPKLLIKYASDLESGVPVRFSGSGSGTDFILNIHPVEVEDIATYYCHHSWGIPMYTFGGGTKLEIKR
Result: 32.2
